Where these numbers come from: patent US20240398811A1

molecular target: purified human, His-tagged PRC2 complex (Homo sapiens (Human), UniProt O75530); assay: Hot Spot HMT assay, inhibition of PRC2 enzymatic activity; conditions: 10 nM PRC2 complex, 1 μM 3H-SAM, core histone H3, 10-point dose-response
Sequence (O75530 whole entry): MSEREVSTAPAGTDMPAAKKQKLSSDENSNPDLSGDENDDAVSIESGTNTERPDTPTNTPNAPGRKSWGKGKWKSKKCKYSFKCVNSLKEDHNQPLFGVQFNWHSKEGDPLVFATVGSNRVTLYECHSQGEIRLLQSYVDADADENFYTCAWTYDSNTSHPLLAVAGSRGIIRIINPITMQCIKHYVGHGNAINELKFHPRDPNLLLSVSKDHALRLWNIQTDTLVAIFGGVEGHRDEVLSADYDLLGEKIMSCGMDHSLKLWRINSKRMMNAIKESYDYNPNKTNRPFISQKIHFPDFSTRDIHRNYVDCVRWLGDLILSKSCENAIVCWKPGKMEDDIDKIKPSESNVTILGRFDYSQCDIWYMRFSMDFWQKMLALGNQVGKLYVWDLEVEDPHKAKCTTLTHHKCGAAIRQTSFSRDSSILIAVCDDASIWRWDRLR
Sequence (Q15910 whole entry partner): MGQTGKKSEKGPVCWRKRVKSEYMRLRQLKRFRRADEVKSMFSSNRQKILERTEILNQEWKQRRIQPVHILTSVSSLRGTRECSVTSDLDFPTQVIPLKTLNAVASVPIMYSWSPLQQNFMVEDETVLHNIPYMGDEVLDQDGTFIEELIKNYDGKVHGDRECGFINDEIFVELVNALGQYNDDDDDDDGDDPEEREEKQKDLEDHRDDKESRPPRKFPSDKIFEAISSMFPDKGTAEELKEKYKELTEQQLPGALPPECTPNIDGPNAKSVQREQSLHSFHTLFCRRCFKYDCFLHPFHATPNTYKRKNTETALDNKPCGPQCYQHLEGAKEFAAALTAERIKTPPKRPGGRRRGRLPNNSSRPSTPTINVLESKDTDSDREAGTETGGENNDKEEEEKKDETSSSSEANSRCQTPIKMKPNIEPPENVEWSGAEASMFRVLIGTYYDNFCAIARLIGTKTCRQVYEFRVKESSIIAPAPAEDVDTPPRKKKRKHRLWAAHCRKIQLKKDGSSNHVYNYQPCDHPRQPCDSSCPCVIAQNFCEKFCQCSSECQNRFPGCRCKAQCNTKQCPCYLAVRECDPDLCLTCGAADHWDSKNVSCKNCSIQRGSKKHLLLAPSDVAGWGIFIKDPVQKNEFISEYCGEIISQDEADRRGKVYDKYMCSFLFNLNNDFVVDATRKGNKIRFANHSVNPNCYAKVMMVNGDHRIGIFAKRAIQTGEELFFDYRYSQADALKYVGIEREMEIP
Sequence (Q15022 whole entry partner): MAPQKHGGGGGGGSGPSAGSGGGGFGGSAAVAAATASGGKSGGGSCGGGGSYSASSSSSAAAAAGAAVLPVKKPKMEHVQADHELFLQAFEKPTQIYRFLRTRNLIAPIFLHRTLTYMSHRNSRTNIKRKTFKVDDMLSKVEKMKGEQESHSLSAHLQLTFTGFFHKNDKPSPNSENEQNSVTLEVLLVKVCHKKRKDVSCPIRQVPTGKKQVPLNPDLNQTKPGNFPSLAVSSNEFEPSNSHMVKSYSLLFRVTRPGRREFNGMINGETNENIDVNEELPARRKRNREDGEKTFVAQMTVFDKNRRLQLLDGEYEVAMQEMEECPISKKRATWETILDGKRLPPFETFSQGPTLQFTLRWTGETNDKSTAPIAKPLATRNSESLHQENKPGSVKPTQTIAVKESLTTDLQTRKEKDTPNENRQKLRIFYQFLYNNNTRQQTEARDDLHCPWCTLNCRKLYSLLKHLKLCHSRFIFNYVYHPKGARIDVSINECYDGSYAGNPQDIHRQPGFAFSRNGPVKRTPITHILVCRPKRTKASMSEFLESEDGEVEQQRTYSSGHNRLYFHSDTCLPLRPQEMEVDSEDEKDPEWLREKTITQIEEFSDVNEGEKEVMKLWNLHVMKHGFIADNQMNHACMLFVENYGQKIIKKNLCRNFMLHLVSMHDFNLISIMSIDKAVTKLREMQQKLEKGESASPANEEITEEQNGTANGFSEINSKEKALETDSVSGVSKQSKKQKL
Sequence (Q6ZN18 whole entry partner): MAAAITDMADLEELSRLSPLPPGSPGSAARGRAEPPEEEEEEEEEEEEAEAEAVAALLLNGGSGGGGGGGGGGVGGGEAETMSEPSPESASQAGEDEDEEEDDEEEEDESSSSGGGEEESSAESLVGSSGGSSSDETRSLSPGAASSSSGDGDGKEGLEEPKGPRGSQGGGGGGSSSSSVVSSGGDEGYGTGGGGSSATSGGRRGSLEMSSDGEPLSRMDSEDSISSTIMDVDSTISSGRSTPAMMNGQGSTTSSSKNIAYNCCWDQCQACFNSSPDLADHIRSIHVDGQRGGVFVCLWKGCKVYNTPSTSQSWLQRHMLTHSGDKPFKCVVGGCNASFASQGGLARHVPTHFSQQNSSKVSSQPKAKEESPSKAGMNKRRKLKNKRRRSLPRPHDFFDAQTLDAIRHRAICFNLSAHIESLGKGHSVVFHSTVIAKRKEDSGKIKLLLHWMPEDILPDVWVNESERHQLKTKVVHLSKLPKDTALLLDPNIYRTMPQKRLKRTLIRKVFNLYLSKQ
Sequence (Q09028 whole entry partner): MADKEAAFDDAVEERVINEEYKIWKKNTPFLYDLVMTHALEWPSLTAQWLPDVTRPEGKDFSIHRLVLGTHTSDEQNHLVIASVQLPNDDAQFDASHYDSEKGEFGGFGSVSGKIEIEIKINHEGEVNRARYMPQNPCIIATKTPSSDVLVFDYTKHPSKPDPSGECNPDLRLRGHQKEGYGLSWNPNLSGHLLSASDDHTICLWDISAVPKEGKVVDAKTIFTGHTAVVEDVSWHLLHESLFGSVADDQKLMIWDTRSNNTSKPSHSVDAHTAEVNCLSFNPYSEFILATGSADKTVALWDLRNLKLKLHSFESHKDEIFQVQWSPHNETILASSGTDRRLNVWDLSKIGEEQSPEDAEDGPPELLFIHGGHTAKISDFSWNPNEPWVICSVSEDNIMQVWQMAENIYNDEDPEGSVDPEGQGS
# IC50 per record follows

• CN(C)C(=O)c1cc(F)c(-c2cnc(NCc3c(F)ccc4c3CCO4)n3cc(C#N)nc23)cc1F = < 100 nM
• Cc1nc(N2CCN(C)CC2)ccc1-c1cnc(NCc2c(F)ccc3c2CCO3)n2cc(C#N)nc12 = 100 to 500 nM

Find the recorded IC50 belonging to `Cc1cc(C(=O)N(C)C)ncc1-c1cnc(NCc2c(F)ccc3c2CCO3)n2cc(C#N)nc12` and report it. < 100 nM

---

# pIC50 per record follows
molecular target: purified human, His-tagged PRC2 complex (Homo sapiens (Human)); test: Hot Spot HMT assay, inhibition of PRC2 enzymatic activity; format: biochemical; conditions: 10 nM PRC2 complex, 1 μM 3H-SAM, core histone H3, 10-point dose-response
pIC50: −log10 of the molar value.

* CN(C)CCc1cccc(-c2cnc(NCc3c(F)ccc4c3CCO4)n3cc(C#N)nc23)c1 [Example 217] | > 7.00
* Cc1cc(-c2cnc(NCc3cccc4c3OCO4)n3cc(C#N)nc23)n(C)n1 [Example 27] | < 6.30
* CC(=O)Nc1cc(-c2cnc(NCc3c(F)ccc4c3CCO4)n3cc(C#N)nc23)ccn1 [Example 131] | > 7.00

Find the recorded pIC50 belonging to N#Cc1cn2c(NCc3c(F)ccc4c3CCO4)ncc(-c3ccc(CN4CCCC4=O)cc3)c2n1 [Example 49] and report it. > 7.00

Find the recorded pIC50 belonging to Cn1cc(-c2cnc(NCc3c(F)ccc4c3CCO4)n3cc(C#N)nc23)c(C#N)n1 [Example 224] and report it. 6.30 to 7.00

Find the recorded pIC50 belonging to CNC(=O)c1cc(-c2cnc(NCc3c(F)ccc4c3CCO4)n3cc(C#N)nc23)n(C)n1 [Example 208] and report it. > 7.00

---

biological target: purified human, His-tagged PRC2 complex (Homo sapiens (Human), UniProt O75530); assay: Hot Spot HMT assay, inhibition of PRC2 enzymatic activity; details: 10 nM PRC2 complex, 1 μM 3H-SAM, core histone H3, 10-point dose-response
pIC50: −log10 of the molar value.
measurement type: pIC50

Below are worked cases with known answers.
* Cc1ncc(-c2cnc(NCc3c(F)ccc4c3CCO4)n3cc(C#N)nc23)cc1N [Example 129] | > 7.00
* N#Cc1cn2c(NCc3c(F)ccc4c3CCO4)ncc(-c3ccc(-c4nnn[nH]4)cc3)c2n1 [Example 190] | > 7.00
* Cc1cc(S(=O)(=O)C(F)(F)F)ccc1-c1cnc(NCc2c(F)ccc3c2CCO3)n2cc(C#N)nc12 [Example 184] | 6.30 to 7.00
* N#Cc1cn2c(NCc3c(F)ccc4c3CCO4)ncc(C3CCOCC3)c2n1 [Example 141] | < 6.30
* Cc1nn(C[C@H](C)O)c(C)c1-c1cnc(NCc2c(F)ccc3c2CCO3)n2cc(C#N)nc12 [Example 65] | 6.30 to 7.00
* Cc1cc(-c2cnc(NCc3cccc4c3CCO4)n3cc(C#N)nc23)n(C)n1 [Example 30] | 6.30 to 7.00
* N#Cc1cn2c(NCc3c(F)ccc4c3CCO4)ncc(-c3ccc(CN4CC(O)C4)cc3)c2n1 [Example 150] | > 7.00

Find the recorded pIC50 belonging to Cn1nc(C(=O)O)cc1-c1cnc(NCc2c(F)ccc3c2CCO3)n2cc(C#N)nc12 [Example 157] and report it. > 7.00
